Listing: Activity of selected molecules
ASSAYED SYSTEM: UniProtKB O43614
Sequence (O43614 whole entry): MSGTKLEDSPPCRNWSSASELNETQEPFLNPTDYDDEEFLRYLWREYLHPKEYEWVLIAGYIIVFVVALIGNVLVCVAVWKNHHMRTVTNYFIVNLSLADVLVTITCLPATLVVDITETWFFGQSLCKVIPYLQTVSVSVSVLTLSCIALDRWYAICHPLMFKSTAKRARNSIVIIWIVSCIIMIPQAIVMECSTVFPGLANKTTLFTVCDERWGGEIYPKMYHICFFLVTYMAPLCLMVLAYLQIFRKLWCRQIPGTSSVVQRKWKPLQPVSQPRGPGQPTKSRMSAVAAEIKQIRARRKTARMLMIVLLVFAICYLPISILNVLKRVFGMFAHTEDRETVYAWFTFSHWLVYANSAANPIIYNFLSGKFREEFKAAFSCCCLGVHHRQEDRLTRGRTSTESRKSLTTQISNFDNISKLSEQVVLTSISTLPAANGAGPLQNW
METHOD DESCRIPTION: Antagonist activity at human OX2R expressed in CHOK1 cells assessed as effect on calcium mobilization
Assay type: functional, cell-based
ASSAY CONDITIONS: CHO-K1
READOUT NAME: Activity (nM)

[
  {
    "SMILES CODE": "Cn1c(SCC(=O)N2CCC[C@H]2C(=O)Nc2ccccc2-c2ccccc2)nc2ccccc21",
    "NUMERIC RESULT": 4
  },
  {
    "SMILES CODE": "O=C(Nc1ccccc1-n1cccc1)[C@@H]1CCCN1C(=O)CSc1nc2ccccc2o1",
    "NUMERIC RESULT": 28
  },
  {
    "SMILES CODE": "COc1ccccc1-c1ccccc1NC(=O)[C@@H]1CCCN1C(=O)CCc1nc2ccccc2[nH]1",
    "NUMERIC RESULT": 5
  },
  {
    "SMILES CODE": "O=C(Nc1ccccc1-c1ccccc1)[C@@H]1CCCN1C(=O)CSc1nc2ccccc2[nH]1",
    "NUMERIC RESULT": 7
  },
  {
    "SMILES CODE": "Cc1ccc2c(c1)nc(SCC(=O)N1CCC[C@H]1C(=O)Nc1ccccc1-n1cccc1)n2C",
    "NUMERIC RESULT": 8
  }
]
